Measured protein stability index values are reported for all entries that follow.
B1: AUP1 (parent)
chain: EGLLRFSSWPFSIQDVVQPLTLQV

Variants of: B1
Protocol text: protein stability index of a GFP-peptide fusion (GPS, HEK-293T) (PSI 1-6); higher = more stable;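 note: lentivirally expressed fusions sorted by FACS into six bins by GFP to DsRed ratio, PSI derived from sequencing read proportions per bin multiplied by bin number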
Details: c terminus: a fixed tail appended
Measured metric: protein stability index

INSERT INTO results (mutant_label, measured_metric, result) VALUES
  ('Q18A', 'protein stability index', 2.25),
  ('S7H', 'protein stability index', 2.13),
  ('G2R', 'protein stability index', 2.83),
  ('F6Y', 'protein stability index', 1.33),
  ('S8G', 'protein stability index', 2.57),
  ('E1R', 'protein stability index', 4.19),
  ('S7D', 'protein stability index', 2.32),
  ('S8C', 'protein stability index', 2.25),
  ('V24L', 'protein stability index', 2.77),
  ('L4N', 'protein stability index', 1.52),
  ('L4S', 'protein stability index', 1.27),
  ('W9C', 'protein stability index', 3.91),
  ('L22T', 'protein stability index', 2.47),
  ('L22Y', 'protein stability index', 2.16),
  ('L4C', 'protein stability index', 3.27),
  ('L22H', 'protein stability index', 1.75),
  ('L20T', 'protein stability index', 1.73),
  ('G2C', 'protein stability index', 3.51),
  ('W9I', 'protein stability index', 2.27),
  ('L20H', 'protein stability index', 1.22),
  ('L22G', 'protein stability index', 1.6),
  ('R5G', 'protein stability index', 3.46),
  ('G2E', 'protein stability index', 2.63),
  ('W9D', 'protein stability index', 1.58),
  ('V17F', 'protein stability index', 2.53),
  ('L22P', 'protein stability index', 1.52),
  ('R5E', 'protein stability index', 4.2),
  ('L3P', 'protein stability index', 2.44),
  ('I13W', 'protein stability index', 1.29),
  ('D15N', 'protein stability index', 2.13),
  ('F11M', 'protein stability index', 2.22),
  ('S7Y', 'protein stability index', 3.72),
  ('W9Q', 'protein stability index', 2),
  ('F6E', 'protein stability index', 1.36);
